Molecular target: T1, human PVRIG-his (AcroBiosystems, Cat NO. PVG-H52H4) (human, UniProt Q6DKI7 41-171, limits assumed)
T1 construct: Bought reagent; also called human PVRIG protein
T1 sequence (looked up): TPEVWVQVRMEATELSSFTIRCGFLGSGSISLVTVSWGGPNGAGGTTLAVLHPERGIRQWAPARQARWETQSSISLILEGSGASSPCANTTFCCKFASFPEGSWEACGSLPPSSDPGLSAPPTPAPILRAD
Test: ELISA, coated human PVRIG-his
recorded endpoint: EC50 (nM)

{"binder": "PVRIG-A113 (Fc fusion, Alpaca VHH joined to human IgG1 Fc (VHH-hinge-CH2-CH3); not shown: human IgG1 hinge-CH2-CH3) QLQLVESGGGLVQSGGSLRLSCAASGRTRSMYVMGWFRQAPGKEREFVGRIKWSGDTTYTSYADFVKGRFTLYGNQARNTVYLQMNSLKPEDTAVYYCAALPSDYDYRAASYGVDYWGKGTLVTVSS", "observed result": 0.092}
{"binder": "PVRIG-A50 (Fc fusion, Alpaca VHH joined to human IgG1 Fc (VHH-hinge-CH2-CH3); not shown: human IgG1 hinge-CH2-CH3) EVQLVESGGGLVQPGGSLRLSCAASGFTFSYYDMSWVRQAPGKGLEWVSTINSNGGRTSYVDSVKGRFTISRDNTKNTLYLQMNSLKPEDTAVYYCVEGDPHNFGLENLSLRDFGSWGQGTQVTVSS", "observed result": 0.196}
{"binder": "PVRIG-A43 (Fc fusion, Alpaca VHH joined to human IgG1 Fc (VHH-hinge-CH2-CH3); not shown: human IgG1 hinge-CH2-CH3) QVQLVESGGGLVQSGGSLRLSCAASGRTRSMYVMGWFRQAPGKEREFVGRIKWSGDTTYTSYADFVKGRFTLYGNQARNTVYLQMNSLKVEDTAVYYCAGRVVPLPSRQRDRYDYWGQGTQVTVSS", "observed result": 0.0537}
{"binder": "PVRIG-A105 (Fc fusion, Alpaca VHH joined to human IgG1 Fc (VHH-hinge-CH2-CH3); not shown: human IgG1 hinge-CH2-CH3) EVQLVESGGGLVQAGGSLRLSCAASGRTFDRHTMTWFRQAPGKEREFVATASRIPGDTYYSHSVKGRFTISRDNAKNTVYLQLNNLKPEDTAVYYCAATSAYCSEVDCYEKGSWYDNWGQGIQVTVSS", "observed result": 0.0571}
